Taken from patent US11091479B2.

Entries and their IC50 values follow.
- target-system: recombinant human MAO-B (monoamine oxidase-B) (Homo sapiens)
- Construct: purchased Sigma-Aldrich
- Sequence (P27338 whole entry): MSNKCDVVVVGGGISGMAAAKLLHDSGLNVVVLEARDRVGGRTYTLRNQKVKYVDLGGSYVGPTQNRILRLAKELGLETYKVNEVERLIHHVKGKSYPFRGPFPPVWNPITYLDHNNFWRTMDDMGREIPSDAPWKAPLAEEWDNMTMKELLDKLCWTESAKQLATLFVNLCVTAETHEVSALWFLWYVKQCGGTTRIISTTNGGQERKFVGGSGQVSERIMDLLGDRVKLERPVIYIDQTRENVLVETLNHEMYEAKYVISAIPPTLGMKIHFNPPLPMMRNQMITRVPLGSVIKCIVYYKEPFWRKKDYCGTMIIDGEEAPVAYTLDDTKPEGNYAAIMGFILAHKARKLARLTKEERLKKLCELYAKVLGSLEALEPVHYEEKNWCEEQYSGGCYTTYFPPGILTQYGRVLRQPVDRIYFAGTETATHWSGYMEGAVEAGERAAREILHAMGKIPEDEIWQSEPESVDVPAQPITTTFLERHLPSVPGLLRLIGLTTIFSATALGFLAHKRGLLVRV
- assay-explanation: Activity on recombinant human MAO-B, method similar to VAP-1 assay, 1 mM benzylamine substrate
- Type: biochemical
- condition-description: read-out: Inhibitory Activity (IC50, nM) MAO-B
Where a name gives a salt, the structure may show the parent alone.

[
  {
    "compound": "CS(=O)(=O)c1ccc(-c2ccc3nn(C/C(=C/F)CN)c(=O)n3c2)cc1 [Example 3, trifluoroacetate]",
    "value-modifier": "=",
    "IC50, nM": 231
  },
  {
    "compound": "NC/C(=C\\F)Cn1nc2cc(-c3ccnc4[nH]ccc34)ccn2c1=O [Example 40, hydrochloride]",
    "value-modifier": "=",
    "IC50, nM": 760
  },
  {
    "compound": "CN(C)Cc1ccccc1-c1ccn2c(=O)n(C/C(=C/F)CN)nc2c1 [Example 23, hydrochloride]",
    "value-modifier": ">",
    "IC50, nM": 10000
  },
  {
    "compound": "NC/C(=C\\F)Cn1nc2cc(-c3ccc4nonc4c3)ccn2c1=O [Example 38, hydrochloride]",
    "value-modifier": "<",
    "IC50, nM": 10
  }
]
